biological target: cdk2/cyclinA (Homo sapiens, UniProt P24941); experiment: Cyclin-Dependent Kinase Assay cdk2/cyclinA; settings: cdk2/A IC50
pIC50: −log10 of the molar value.
Observable: pIC50

                                    compound  endpoint_value
 0  CC1Nc2ccc(Nc3ncc4ccc(=O)n(CC5CC5)c4n3)cc2C1C (stereo not shown)            6.57
 1  O=c1ccc2cnc(Nc3cc(Cl)c(O)c(Cl)c3)nc2n1C1CCCC1            6.77
 2  CCC(CC)n1c(=O)ccc2cnc(Nc3ccc(C)c(NC(C)=O)c3)nc21            5.80
 3  CCC(CC)n1c(=O)ccc2cnc(Nc3ccc(O)cc3F)nc21            6.19
 4  CC(C)n1c(=O)ccc2cnc(Nc3cc(Cl)c(O)c(Cl)c3)nc21            6.15
 5   O=c1ccc2cnc(Nc3cc(F)cc(F)c3)nc2n1CC1CC1            6.48
 6   CCCCn1c(=O)ccc2cnc(Nc3cc(C)cc(C)c3)nc21            6.51
 7  CCC(CC)n1c(=O)ccc2cnc(Nc3ccc4[nH]c5ccccc5c4c3)nc21            6.55
 8       CCn1c(=O)ccc2cnc(Nc3ccc(O)cc3F)nc21            5.70
 9   CCCn1c(=O)ccc2cnc(Nc3ccc(I)c(Cl)c3)nc21            6.00
10            Cn1c(=O)ccc2cnc(Nc3ccccc3)nc21            5.55
11  O=c1ccc2cnc(Nc3ccc(C(F)(F)F)cc3)nc2n1C1CCCC1            6.48
12  N#Cc1ccc(Nc2ncc3ccc(=O)n(C4CCCC4)c3n2)cc1            7.13
13  O=c1ccc2cnc(Nc3ccc(O)c(Cl)c3)nc2n1CC(F)(F)F            6.00
14         CCCCn1c(=O)ccc2cnc(Nc3ccccc3)nc21            6.59
15  CC(=O)Nc1cc(Nc2ncc3ccc(=O)n(CC4CC4)c3n2)ccc1C#N            6.28
16  COc1cc(Nc2ncc3ccc(=O)n(C(C)C)c3n2)cc(C(F)(F)F)c1            5.74
17  O=c1ccc2cnc(Nc3ccc(F)c(C(F)(F)F)c3)nc2n1CC1CC1            6.37
18  O=c1ccc2cnc(Nc3ccc4[nH]ccc4c3)nc2n1C1CCCC1            7.13

====

The entries below come with measured pIC50 values attached.
target: Cdk5/p25 (Homo sapiens); experiment: Cyclin-Dependent Kinase 5 (cdk5) Assay; assay type: biochemical; conditions: Table 1
pIC50: −log10 of the molar value.
Observable: pIC50

In [3]: df
Out[3]:
                                   compound            target_system  observable  endpoint_value
0           CCN1C(=O)CCc2cnc(Nc3ccccc3)nc21  Cdk5/p25 (Homo sapiens)       pIC50            7.19
1  O=c1ccc2cnc(Nc3ccc(N4CCCCC4CO)cc3)nc2n1C1CC2CCC1C2 (stereo not drawn)  Cdk5/p25 (Homo sapiens)       pIC50            6.52
2  O=c1ccc2cnc(Nc3ccc(N4CCC(O)CC4)cc3)nc2n1C1CCCCC1  Cdk5/p25 (Homo sapiens)       pIC50            7.61
3  CCN(CC)CCOc1ccc(Nc2ncc3ccc(=O)n(CC)c3n2)cc1  Cdk5/p25 (Homo sapiens)       pIC50            6.81
4    CCn1c(=O)ccc2cnc(Nc3ccc(N(C)C)cc3)nc21  Cdk5/p25 (Homo sapiens)       pIC50            7.19
5  CN(C)c1ccc(Nc2ncc3ccc(=O)n(CCCOCc4ccccc4)c3n2)cc1  Cdk5/p25 (Homo sapiens)       pIC50            6.55
6  O=c1ccc2cnc(Nc3ccc(N4CCCC(CO)C4)cc3)nc2n1C1CC2CCC1C2 (stereo not drawn)  Cdk5/p25 (Homo sapiens)       pIC50            6.78
7  O=c1ccc2cnc(Nc3ccc(N4CCC(O)CC4)cc3)nc2n1C1CC2CCC1C2 (stereo not drawn)  Cdk5/p25 (Homo sapiens)       pIC50            7.44
8  CN1CCN(c2ccc(Nc3ncc4ccc(=O)n(CCOCc5ccccc5)c4n3)cc2)CC1  Cdk5/p25 (Homo sapiens)       pIC50            5.29

Hey, just so you know, these numbers are from patent US20040224958A1.
